Quick reference for EC50 among some compounds
molecular target: B1-AR (Homo sapiens, UniProt P08588); construct: expressed in transfected cells; host or cells: CHO-K1; test: cAMP Gs dynamic HTRF assay, cells expressing beta-adrenergic receptor (CHO-K1), B1-AR; assay type: cell-based; conditions: cAMP HTRF, read-out: pEC50 [B1-AR] (converted)
Sequence (P08588 whole entry, species assumed): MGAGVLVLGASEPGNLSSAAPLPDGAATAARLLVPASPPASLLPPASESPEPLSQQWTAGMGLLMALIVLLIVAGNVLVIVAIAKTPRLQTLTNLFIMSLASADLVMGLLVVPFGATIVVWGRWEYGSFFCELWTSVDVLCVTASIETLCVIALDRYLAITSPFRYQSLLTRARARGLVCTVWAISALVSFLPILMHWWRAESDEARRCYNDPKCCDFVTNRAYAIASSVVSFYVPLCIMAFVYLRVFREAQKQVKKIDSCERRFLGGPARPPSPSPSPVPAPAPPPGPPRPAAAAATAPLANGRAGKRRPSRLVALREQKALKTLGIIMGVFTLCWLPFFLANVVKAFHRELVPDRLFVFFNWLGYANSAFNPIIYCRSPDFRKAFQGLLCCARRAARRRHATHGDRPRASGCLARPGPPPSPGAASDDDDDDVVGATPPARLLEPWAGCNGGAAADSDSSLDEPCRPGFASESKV

Here is how some compounds turned out for EC50.
CCC(C)(C)NC[C@H](O)c1cccnc1C: 100 to 1000 nM
Cc1ncccc1[C@@H](O)CNC1CC(F)(F)C1: > 1000 nM
O[C@@H](CNC1CC1)c1cccc2[nH]cc(F)c12: 10 to 100 nM
Cc1ncccc1[C@@H](O)CNC1CC(C)(C)C1: > 1000 nM
Cc1cc([C@@H](O)CNC(C)(C)C)cc2cccnc12: 100 to 1000 nM

QUERY: Give its EC50 value. Item: CC(C)NC[C@H](O)c1cc(C#N)cc2[nH]ncc12
RESULT: 10 to 100 nM

QUERY: Give its EC50 value. Item: Cc1ncccc1[C@@H](O)CNC1CCC1
RESULT: > 1000 nM

QUERY: Give its EC50 value. Item: CC(C)(C)NC[C@H](O)c1cccc2[nH]nc(C(N)=O)c12
RESULT: 100 to 1000 nM
